system: Mycobacterium ulcerans; experiment: Antimicrobial activity against Mycobacterium ulcerans ATCC 19423 harboring pTY60H containing pCK0601 carrying the luxAB gene under the hsp60 promoter after 14 days determined according to RLU count by real-time luminescence method; format: functional; conditions: ATCC 19423, 336 h
Below is a list of entries, each paired with its recorded MIC value.

{"CHEMICAL STRUCTURE": "CN[C@@H]1[C@H](O[C@H]2[C@H](O[C@H]3[C@H](O)[C@@H](O)[C@H](N=C(N)N)[C@@H](O)[C@@H]3N=C(N)N)O[C@@H](C)[C@]2(O)C=O)O[C@@H](CO)[C@H](O)[C@H]1O", "VALUE QUALIFIER": "=", "MIC, µg/mL": 1}
{"CHEMICAL STRUCTURE": "CO[C@H]1/C=C/O[C@@]2(C)Oc3c(C)c(O)c4c(O)c(c(/C=N/N5CCN(C)CC5)c(O)c4c3C2=O)NC(=O)/C(C)=C\\C=C\\[C@H](C)[C@H](O)[C@@H](C)[C@@H](O)[C@@H](C)[C@H](OC(C)=O)[C@@H]1C", "VALUE QUALIFIER": "≤", "MIC, µg/mL": 0.03}
{"CHEMICAL STRUCTURE": "CN(C)[C@@H]1C(O)=C(C(N)=O)C(=O)[C@@]2(O)C(O)=C3C(=O)c4c(O)cccc4[C@@](C)(O)[C@H]3C[C@@H]12", "VALUE QUALIFIER": "=", "MIC, µg/mL": 2.5}
{"CHEMICAL STRUCTURE": "CC[C@H]1OC(=O)[C@H](C)[C@@H](O[C@H]2C[C@@](C)(OC)[C@@H](O)[C@H](C)O2)[C@H](C)[C@@H](O[C@@H]2O[C@H](C)C[C@H](N(C)C)[C@H]2O)[C@](C)(O)C[C@@H](C)C(=O)[C@H](C)[C@@H](O)[C@]1(C)O", "VALUE QUALIFIER": "=", "MIC, µg/mL": 0.5}
{"CHEMICAL STRUCTURE": "COc1c(N2C[C@@H]3CCCN[C@@H]3C2)c(F)cc2c(=O)c(C(=O)O)cn(C3CC3)c12", "VALUE QUALIFIER": "≤", "MIC, µg/mL": 0.03}

---

Below is a list of entries, each paired with its recorded MIC value.
tested on: Mycobacterium ulcerans; assay: Antimicrobial activity against Mycobacterium ulcerans 1059 harboring pTY60K carrying the luxAB gene under the hsp60 promoter agar dilution method; format: functional

{"MOLECULE": "CC(=O)NC[C@H]1CN(c2ccc(N3CCOCC3)c(F)c2)C(=O)O1 [LINEZOLID]", "U": "µg/mL", "MIC": 1}
{"MOLECULE": "CO[C@H]1/C=C/O[C@@]2(C)Oc3c(C)c(O)c4c(O)c(c(/C=N/N5CCN(C)CC5)c(O)c4c3C2=O)NC(=O)/C(C)=C\\C=C\\[C@H](C)[C@H](O)[C@@H](C)[C@@H](O)[C@@H](C)[C@H](OC(C)=O)[C@@H]1C [RIFAMPIN]", "U": "µg/mL", "MIC": 0.5}
{"MOLECULE": "CC[C@H]1OC(=O)[C@H](C)[C@@H](O[C@H]2C[C@@](C)(OC)[C@@H](O)[C@H](C)O2)[C@H](C)[C@@H](O[C@@H]2O[C@H](C)C[C@H](N(C)C)[C@H]2O)[C@](C)(OC)C[C@@H](C)C(=O)[C@H](C)[C@@H](O)[C@]1(C)O [CLARITHROMYCIN]", "U": "µg/mL", "MIC": 0.25}
{"MOLECULE": "CN[C@@H]1[C@H](O[C@H]2[C@H](O[C@H]3[C@H](O)[C@@H](O)[C@H](N=C(N)N)[C@@H](O)[C@@H]3N=C(N)N)O[C@@H](C)[C@]2(O)C=O)O[C@@H](CO)[C@H](O)[C@H]1O [STREPTOMYCIN]", "U": "µg/mL", "MIC": 0.25}
